Cited source: PubChem BioAssay AID2551

Target: Nuclear receptor ROR-gamma (Mus musculus)
Assay: qHTS for inhibitors of ROR gamma transcriptional activity; also: nearly all actives have a fitted effect of over 60% in size
Settings: Drosophila S2 Gal4-RORgamma UAS-luciferase reporter, 20 h; series mostly up to 53.6 µM
The campaign covered roughly 310,000 compounds. About 17,000 (5.5%) were called active. About 11% were inconclusive and are not listed. Calls follow the shape of the dose curve; as a rule, active = well fitted inhibition curve with a large enough effect; inconclusive = small, poorly fitted or top-dose-only effect, or effect the other way; inactive = no such curve, though single readings can be large or run the other way. The list comes from a sample in which actives are over-represented; it also holds close analogues and randomly drawn compounds.
Field 'call' accepts label 1 for active, label 0 for inactive

>>> print(df.to_string())
                                   compound  qualitativelabel
0                COc1ccc(Cl)cc1CSc1ncn[nH]1           label 0
1  CCn1cc(/C=C(\NC(=O)c2cc(OC)c(OC)c(OC)c2)C(=O)N2CCN(C)CC2)c2ccccc21           label 0
2  CCCCN1C(=O)C(C)=C(C)C1OCCc1ccc(OC)c(OC)c1 (stereo unspecified)           label 0
3  Cc1cccc(NC(=O)CSCC(=O)Nc2nnc(C3CC3)s2)c1           label 0
4         O=C(/C=C/Sc1ncn[nH]1)c1ccc(Cl)cc1           label 1
5          O=C(NCCOCc1ccc(Cl)cc1)c1ncn[nH]1           label 0

Prompt: What call does the record list for O=C(Nc1c2c(nn1-c1ccccc1)CS(=O)(=O)C2)C1CCCC1 ?
Response: label 0

Prompt: What call does the record list for COc1cccc(C(=O)Nc2nnc(S(=O)(=O)N3CCOCC3)s2)c1 ?
Response: label 0

Prompt: What call does the record list for Cc1ccc(NS(=O)(=O)c2c(C)[nH]c(C)c2C(=O)N2CCCCC2)c(C)c1 ?
Response: label 0

Prompt: What call does the record list for O=C(Nc1nnc(C2CC2)s1)c1ccccn1 ?
Response: label 1

Prompt: What call does the record list for O=C(Cc1cccs1)Nc1nnc(C2CC2)s1 ?
Response: label 0

###

Target: Nuclear receptor ROR-gamma (Mus musculus)
Experiment: qHTS for inhibitors of ROR gamma transcriptional activity; also: nearly all actives have a fitted effect of over 60% in size
Settings: Drosophila S2 Gal4-RORgamma UAS-luciferase reporter, 20 h; series mostly up to 53.6 µM
The whole screen tested about 310,000 compounds, of which about 17,000 (5.5%) were called active. Inconclusive results (about 11%) are left out. The call rests on the fitted dose curve; in most records, active means well fitted inhibition curve with a large enough effect; inconclusive means small, poorly fitted or top-dose-only effect, or effect the other way; inactive means no such curve, though single readings can be large or run the other way. What follows is part of a selection rich in actives, with near analogues and random picks from the rest.
Field 'call' accepts active, inactive

Field: example entries. Status: answers known.
>>> print(df.to_string())
                                   compound  qualitativelabel
0  CCN1C(=NCc2ccc(OC)cc2)N[C@@H](CCc2ccccc2)[C@H](C(=O)NCc2ccc(OC)cc2)[C@H]1C          inactive
1  O=C(O)CC/C(=C\c1cc2c(cc1Br)OCO2)c1nc2ccccc2s1          inactive
2                       Cc1ccnc(SCC(N)=O)n1          inactive
3  COCCN1C(=O)N[C@@H](CCc2ccccc2)[C@H](C(C)=O)[C@H]1C          inactive
4  COc1ccc(N(Cc2cc3ccc(C)cc3[nH]c2=O)S(=O)(=O)c2ccccc2)cc1          inactive
5  COc1ccc(CN2CCN(Cc3ccc(OC)c(OC)c3OC)CC2)cc1          inactive

Prompt: What call does the record list for CCOc1cc(C2C(C(=O)c3ccco3)=C(O)C(=O)N2Cc2ccccc2)ccc1O (stereo not given) ?
Response: inactive

Prompt: What call does the record list for Cc1cccc(NC(=O)c2cccc(C(F)(F)F)c2)c1 ?
Response: inactive

Prompt: What call does the record list for O=C(Nc1cccc(C(F)(F)F)c1)c1cc(Br)cc(Br)c1O ?
Response: active

Prompt: What call does the record list for CC(=O)Nc1ccc(S(=O)(=O)N(C)c2nc3ccccc3nc2Cl)cc1 ?
Response: inactive
